Target: GST-hCAR-LBD (Homo sapiens, UniProt Q14994)
Construct: purchased Life Technologies (Carlsbad, Calif.) or Invitrogen (Carlsbad, Calif.)
Sequence (Q14994 109-352 limits assumed): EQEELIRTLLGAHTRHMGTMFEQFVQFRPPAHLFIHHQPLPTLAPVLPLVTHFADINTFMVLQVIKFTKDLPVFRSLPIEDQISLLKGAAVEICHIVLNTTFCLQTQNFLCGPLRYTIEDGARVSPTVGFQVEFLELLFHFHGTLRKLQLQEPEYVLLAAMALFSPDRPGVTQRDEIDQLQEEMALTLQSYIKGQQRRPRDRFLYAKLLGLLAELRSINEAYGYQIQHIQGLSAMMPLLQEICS
Assay: CoAct binding inverse agonist assay (LanthaScreen TR-FRET, fluorescent PGC-1α coactivator recruitment/repression)
Format: biochemical
Conditions: read-out: IC50 (CAR inverse agonistic activity)
pIC50: −log10 of the molar value.

| molecule | qualifier symbol | pIC50 |
| --- | --- | --- |
| CCOC(=O)Nc1ccc2c(c1)N(C(=O)CN1CCCCC1)c1ccccc1CC2 [Compound 18] | = | 6.21 |
| O=C(Nc1ccc2c(c1)N(C(=O)Cn1cccc1)c1ccccc1CC2)OC1CCC1 [Compound 42] | = | 7.70 |
| CCOC(=O)Nc1ccc2c(c1)N(C(=O)CCN1CCCC1)c1ccccc1CC2 [Compound 23] | = | 5.50 |
| CC(C)OC(=O)Nc1ccc2c(c1)N(C(=O)CCN(C)C)c1ccccc1CC2 [compound 89] | = | 5.75 |
| CCNS(=O)(=O)Nc1ccc2c(c1)N(C(=O)CN(CC)CC)c1ccccc1CC2 [Compound 9] | = | 4.72 |
| CC(C)OCC(=O)N1c2ccccc2CCc2ccc(NC(=O)OC(C)C)cc21 [Compound 30] | = | 7.22 |
| COC(=O)Nc1ccc2c(c1)N(C(=O)CCN1CCOCC1)c1ccccc1CC2 [compound 87] | = | 6.54 |
| CCCN(CCC)CC(=O)N1c2ccccc2CCc2ccc(NC(=O)OC(C)(C)C)cc21 [Compound 37] | = | 6.82 |
| CC(C)OC(=O)Nc1ccc2c(c1)N(C(=O)COCC(C)(C)C)c1ccccc1CC2 [Compound 32] | = | 7.68 |
| CCOCC(=O)N1c2ccccc2CCc2ccc(NC(=O)OC(C)C)cc21 [Compound 29] | = | 4.95 |
| CCOC(=O)Nc1ccc2c(c1)N(C(=O)CCN(CC)CC)c1ccccc1CC2 [Compound 22] | = | 5.61 |
| CCOC(=O)Nc1ccc2c(c1)N(C(=O)COC(C)(C)C)c1ccccc1CC2 [Compound 19] | = | 7.15 |
| CCOC(=O)Nc1ccc2c(c1)N(C(=O)CN(CC)CC)c1ccccc1CC2 [CINPA1] | = | 6.16 |
| CCC(C)OCC(=O)N1c2ccccc2CCc2ccc(NC(=O)OC(C)C)cc21 (stereo not drawn) [Compound 31] | = | 7.46 |
| O=C(Nc1ccc2c(c1)N(C(=O)Cn1cccc1)c1ccccc1CC2)OC1CC1 [Compound 41] | = | 7.66 |
| CC(C)(C)OC(=O)Nc1ccc2c(c1)N(C(=O)CN1CCCCC1)c1ccccc1CC2 [Compound 38] | = | 6.66 |
| CC(C)OCC(=O)N1c2ccccc2CCc2ccc(NC(=O)OC(C)(C)C)cc21 [Compound 39] | = | 6.92 |
| O=C(Nc1ccc2c(c1)N(C(=O)Cn1cccc1)c1ccccc1CC2)OC1CCCC1 [Compound 43] | = | 7.85 |
| CC(C)OC(=O)Nc1ccc2c(c1)N(C(=O)COC1CCCC1)c1ccccc1CC2 [Compound 35] | = | 7.70 |
| CC(C)OC(=O)Nc1ccc2c(c1)N(C(=O)COC1CC1)c1ccccc1CC2 [Compound 33] | = | 7.09 |
| CCN(CC)CC(=O)N1c2ccccc2CCc2ccc(NC(=O)NC(C)C)cc21 [Compound 6] | = | 5.31 |
| CC(C)OC(=O)Nc1ccc2c(c1)N(C(=O)CCN1CCN(CCO)CC1)c1ccccc1CC2 [compound 88] | < | 4.15 |
| CC(C)OC(=O)Nc1ccc2c(c1)N(C(=O)COC1CCC1)c1ccccc1CC2 [Compound 34] | = | 7.42 |
| CCN(CC)CCC(=O)N1c2ccccc2CCc2ccc(NC(=O)OC(C)C)cc21 [Compound 25] | = | 5.19 |
